system: Acinetobacter baumannii; experiment: Antibacterial activity against Carbapenem-resistant Acinetobacter baumannii clinical isolate incubated for 16 to 24 hrs by CLSI based broth microdilution method; type: functional; details: time 16-24 hrs
Could you please report measured MIC for the items listed next?
Give bare numbers, in µg/mL.

1. CN[C@H](CC(C)C)C(=O)N[C@H]1C(=O)N[C@@H](CC(N)=O)C(=O)N[C@H]2C(=O)N[C@H]3C(=O)N[C@H](C(=O)N[C@H](C(=O)NCc4ccc(-c5ccc(CN)cc5)cc4)c4cc(O)cc(O)c4-c4cc3ccc4O)[C@H](O)c3ccc(c(Cl)c3)Oc3cc2cc(c3O[C@@H]2O[C@H](CO)[C@@H](O)[C@H](O)[C@H]2O[C@H]2C[C@](C)(N)[C@H](O)[C@H](C)O2)Oc2ccc(cc2Cl)[C@H]1O :: 32
2. CN[C@H](CC(C)C)C(=O)N[C@H]1C(=O)N[C@@H](CC(N)=O)C(=O)N[C@H]2C(=O)N[C@H]3C(=O)N[C@H](C(=O)N[C@H](C(=O)NCc4ccc(-c5ccc(CNC(=N)N)cc5)cc4)c4cc(O)cc(O)c4-c4cc3ccc4O)[C@H](O)c3ccc(c(Cl)c3)Oc3cc2cc(c3O[C@@H]2O[C@H](CO)[C@@H](O)[C@H](O)[C@H]2O[C@H]2C[C@](C)(N)[C@H](O)[C@H](C)O2)Oc2ccc(cc2Cl)[C@H]1O :: 32

// batch mode: one MIC value per listed entry
1. CN[C@H](CC(C)C)C(=O)N[C@H]1C(=O)N[C@@H](CC(N)=O)C(=O)N[C@H]2C(=O)N[C@H]3C(=O)N[C@H](C(=O)N[C@H](C(=O)O)c4cc(O)cc(O)c4-c4cc3ccc4O)[C@H](O)c3ccc(c(Cl)c3)Oc3cc2cc(c3O[C@@H]2O[C@H](CO)[C@@H](O)[C@H](O)[C@H]2O[C@H]2C[C@](C)(NCc3ccc(-c4ccc(CCNC(=N)N)cc4)cc3)[C@H](O)[C@H](C)O2)Oc2ccc(cc2Cl)[C@H]1O
2. CC(C)C[C@@H](N)C(=O)N[C@H]1C(=O)N[C@@H](CC(N)=O)C(=O)N[C@H]2C(=O)N[C@H]3C(=O)N[C@H](C(=O)N[C@H](C(=O)NCc4ccc(-c5cccc(CNC(=N)N)c5)cc4)c4cc(O)cc(O)c4-c4cc3ccc4O)[C@H](O)c3ccc(c(Cl)c3)Oc3cc2cc(c3O[C@@H]2O[C@H](CO)[C@@H](O)[C@H](O)[C@H]2O[C@H]2C[C@](C)(N)[C@H](O)[C@H](C)O2)Oc2ccc(cc2Cl)[C@H]1O
3. CN[C@H](CC(C)C)C(=O)N[C@H]1C(=O)N[C@@H](CC(N)=O)C(=O)N[C@H]2C(=O)N[C@H]3C(=O)N[C@H](C(=O)N[C@H](C(=O)NCCCCCCCCNC(=N)N)c4cc(O)cc(O)c4-c4cc3ccc4O)[C@H](O)c3ccc(c(Cl)c3)Oc3cc2cc(c3O[C@@H]2O[C@H](CO)[C@@H](O)[C@H](O)[C@H]2O[C@H]2C[C@](C)(N)[C@H](O)[C@H](C)O2)Oc2ccc(cc2Cl)[C@H]1O
4. CN[C@H](CC(C)C)C(=O)N[C@H]1C(=O)N[C@@H](CC(N)=O)C(=O)N[C@H]2C(=O)N[C@H]3C(=O)N[C@H](C(=O)N[C@H](C(=O)O)c4cc(O)c(CNCCCCCCCCN)c(O)c4-c4cc3ccc4O)[C@H](O)c3ccc(c(Cl)c3)Oc3cc2cc(c3O[C@@H]2O[C@H](CO)[C@@H](O)[C@H](O)[C@H]2O[C@H]2C[C@](C)(N)[C@H](O)[C@H](C)O2)Oc2ccc(cc2Cl)[C@H]1O
5. CN[C@H](CC(C)C)C(=O)N[C@H]1C(=O)N[C@@H](CC(N)=O)C(=O)N[C@H]2C(=O)N[C@H]3C(=O)N[C@H](C(=O)N[C@H](C(=O)O)c4cc(O)cc(O)c4-c4cc3ccc4O)[C@H](O)c3ccc(c(Cl)c3)Oc3cc2cc(c3O[C@@H]2O[C@H](CO)[C@@H](O)[C@H](O)[C@H]2O[C@H]2C[C@](C)(NCc3ccc(-c4ccc(CNC(=N)N)cc4)cc3)[C@H](O)[C@H](C)O2)Oc2ccc(cc2Cl)[C@H]1O

Reply text:
64
64
32
128
64
